Exercise: for every item that follows, state its recorded VEGF-E-mediated Survival % Inhibition (Average).
Biological target: KDR endogenously expressed on human umbilical vein endothelial cells (HUVEC) (human, UniProt P35968 20-1356); note: test concentration or dose not given here
Sequence (P35968 20-1356): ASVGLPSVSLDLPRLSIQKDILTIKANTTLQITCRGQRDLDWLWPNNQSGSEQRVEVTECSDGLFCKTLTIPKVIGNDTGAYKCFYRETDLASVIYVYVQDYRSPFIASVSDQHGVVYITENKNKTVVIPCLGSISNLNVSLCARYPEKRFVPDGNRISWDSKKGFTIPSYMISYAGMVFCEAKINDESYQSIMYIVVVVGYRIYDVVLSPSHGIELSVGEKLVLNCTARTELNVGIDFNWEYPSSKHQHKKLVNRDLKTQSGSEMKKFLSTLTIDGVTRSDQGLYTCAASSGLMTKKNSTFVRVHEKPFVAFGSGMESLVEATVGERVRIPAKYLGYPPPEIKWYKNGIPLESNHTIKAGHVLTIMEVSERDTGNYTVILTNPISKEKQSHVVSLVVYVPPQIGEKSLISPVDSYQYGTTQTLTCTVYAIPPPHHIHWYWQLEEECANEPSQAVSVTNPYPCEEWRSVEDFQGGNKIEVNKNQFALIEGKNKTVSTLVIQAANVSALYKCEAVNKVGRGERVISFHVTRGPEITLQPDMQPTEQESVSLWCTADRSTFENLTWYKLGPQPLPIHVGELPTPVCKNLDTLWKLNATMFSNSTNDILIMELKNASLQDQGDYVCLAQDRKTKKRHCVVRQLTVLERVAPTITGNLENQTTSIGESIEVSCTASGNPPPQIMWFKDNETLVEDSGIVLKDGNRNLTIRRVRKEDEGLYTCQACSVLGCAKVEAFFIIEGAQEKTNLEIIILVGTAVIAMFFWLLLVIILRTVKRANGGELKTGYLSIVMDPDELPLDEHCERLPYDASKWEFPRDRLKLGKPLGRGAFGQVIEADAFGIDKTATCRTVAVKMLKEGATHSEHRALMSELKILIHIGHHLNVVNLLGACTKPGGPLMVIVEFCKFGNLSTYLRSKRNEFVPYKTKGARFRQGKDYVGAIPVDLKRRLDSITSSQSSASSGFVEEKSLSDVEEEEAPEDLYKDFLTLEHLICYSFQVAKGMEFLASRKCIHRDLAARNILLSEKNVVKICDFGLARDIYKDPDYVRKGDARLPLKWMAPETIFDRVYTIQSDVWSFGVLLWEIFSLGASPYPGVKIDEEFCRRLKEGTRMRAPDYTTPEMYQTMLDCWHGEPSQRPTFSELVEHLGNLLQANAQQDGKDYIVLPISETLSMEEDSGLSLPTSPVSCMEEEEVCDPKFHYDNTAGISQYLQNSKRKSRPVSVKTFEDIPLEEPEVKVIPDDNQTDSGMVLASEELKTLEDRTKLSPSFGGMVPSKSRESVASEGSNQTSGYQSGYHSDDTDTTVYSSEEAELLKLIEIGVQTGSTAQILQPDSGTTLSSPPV
Experiment: cell-based or functional assay
# value in %; strip the unit string

Give its VEGF-E-mediated Survival % Inhibition (Average) value. Item: 29A3 (antibody, V domains shown, Fully human mAb from XenoMouse hybridoma, tested as hybridoma supernatant) VH: QVQLQESGPGLVKPSETLSLTCTVSGGSISSYFWSWIRQPAGKGLEWIGRIYFSGRTNYNPSLKSRVTMSVETSKNQFSLKLNSVTAADTAVYYCARDGGWNYDVAFDYWGQGTLVTVSS VL: QAVLTQPSSLSASPGASASLTCTLRSGINVGTYRIYWYQQKPGSPPQYLLRYKSDSDQLQGSGVPSRFSGSKDASANAGILLISGLQSEDEADYYCMVWHSNTWVFGGGTKLTVL -10

Thanks! And 21A1 (antibody, V domains shown, Fully human mAb from XenoMouse hybridoma, tested as hybridoma supernatant) VH: QVQLVESGGGLVKPGGSLRLSCAASGFTFSDYYMSWIRQAPGKGLEWVSYISNSGITIYYADSVKGRFTISRDNAKNSLYLQMNSLRAGDTAVYYCAREEWYSSRWYRNFDYWGQGTLVTVSS VL: DIQMTQFSSSLSASVGDRVTITCRASQSISRYLNWYQQKPGKAPKLLIYAASSLQSGVPSRFNGSGSGTDFTLTISSLQPEDFATYYCQQSYSAPLTFGGGTKVEIK ? 42

Thanks! And 21H9 (antibody, V domains shown, Fully human mAb from XenoMouse hybridoma, tested as hybridoma supernatant) VH: QVPLVESGGGVVQPGRSLRLSCAASGFTFSSYGMHWVRQAPGKGLEWVAVIWYDGSNKYYADSVQGRFTISRDNSKNTLYLQMNSLRAEDTAVYYCARGVTMVRGLIIARYYYGLDVWGQGTTVTVSS VL: DIVMTQTPLSSPVTFGQPASISCRSSQSLVHSDGNTYLSWLQQRPGQPPRLLIYKISNRFFGVPDRFSGSGAGTDFTLKISRVEAEDVGLYYCMQSTQFPLTFGGGTKVEIK ? -1

Thanks! And 24C9 (antibody, V domains shown, Fully human mAb from XenoMouse hybridoma, tested as hybridoma supernatant) VH: EVQLVESGGGLVKPGGSLRLSCAASGFTFSTYSMNWVRQAPGKGLEWVSFISGRSSYIYYADSVKGRFTISRDNAKNSLYLQMNSLRAEDTAVYYCSKDDWFEELWGQGTLVTVSS VL: DIQMTQSPSSLSASVGDRVTITCRASQGIRNDLGWYQQKPGKAPKRLIYATFSLQSGVPSRFSGSGSGTEFTLTISSLQPEDFATYYCLQHNRYPWTFGQGTKVEIK ? 72

Thanks! And 32G7 (antibody, V domains shown, Fully human mAb from XenoMouse hybridoma, tested as hybridoma supernatant) VH: EVQLVESGGGLVKPGGSLRLSCAASGFTISSYSMNWVRQAPGKGLEWVSFISSRSNYIYYADSVKGRFTISRDNAKNSLYLQMNSLRAEDTAVYYCSKDDWFEELWGQGTLVTVSS VL: DIQMTQSPSSLSASVGDRVTITCRASQDIRNDLGWYQQKPGKAPKRLIYAASSLQSGVPSRFSGSGSGTEFTLTISSLQPEDFATYYCLQHNSFPWTFGQGTKVEIK ? 62

Thanks! And 33D5 (antibody, V domains shown, Fully human mAb from XenoMouse hybridoma, tested as hybridoma supernatant) VH: QVQLVQSGAEVKKPGASVKVSCKASGYTFGSYDINWVRQATGQGLEWMGWMNPNSGNTGYAQKFQGRVTLTRNTSIRTVYMELSSLRSEDTAVYYCARGGYSNLGWFDPWGQGSLVTVSS VL: DIQMTQSPSSVSVSVGDRVTITCRASQGISSWLAWYQQKPGKAPKLLIYAASSLQSGVPSRFSGSGSGTDFTLTISSLQPEDFATYYCQQANSFPFTFGPGTKVDIK ? 0

Thanks! And 29H3 (antibody, V domains shown, Fully human mAb from XenoMouse hybridoma, tested as hybridoma supernatant) VH: QVQLVQSGAEVKKPGASVKVSCKASGYTFTSYDINWVRQATGQGLEWMGWMNPNSGKTGYAQKFQGRVTMTRNTSINTAYMELSSLRSEDTAVYYCARGGYSNLGWFDPWGQGTLVTVSS VL: DIQMTQSPSSVSASVGDRVTITCRASQGISSWLVWYHQKPGKAPKLLIYGASSLQSGVPSRFSGSGSGTDFTLTISSLQPEDFATYYCQQANNFPFTFGPGTKVDIK ? -15

Thanks! And 29F7 (antibody, V domains shown, Fully human mAb from XenoMouse hybridoma, tested as hybridoma supernatant) VH: QVQLVQSGAEVKKPGASVKVSCKASGYTFTSYDINWVRQATGQGLEWMGWMNPNSGKTGYAQKFQGRVTMTRSTSISTAYMELSSLRSEDTAVYYCARGGYSNLGWFDPWGQGTLVTVSS VL: DIQMTQSPSSVFASVGDRVTITCRASQGISTWLAWYQQKPGKAPKFLIYAASSLQSGVPSRFSGSGSGTDFTLTISSLQPDDFATYYCQQANNFPFTFGPGTKVDIK ? 11

Thanks! And 31E11 (antibody, V domains shown, Fully human mAb from XenoMouse hybridoma, tested as hybridoma supernatant) VH: QVQLVESGGGLVKPGGSLRLSCAASGFTFSDYYMSWIRQAPGKGLEWVSYISISGSTIYYADSVKGRFTISRDNAKNSLYLQMNSLRAEDTAVYYCARDDFWSGYYFNWFDPWGQGTLVTVSS VL: DIQMTQSPSSLSASVGDRVTITCRANQTISTFLNWYQQNPGKAPKLLIYAASSLQSGVPSRFSGSGSGTDFTLTISSLQPEDFATYYCQQTYIIPLTFGGGTKVEIK ? 55

Thanks! And 30A1 (antibody, V domains shown, Fully human mAb from XenoMouse hybridoma, tested as hybridoma supernatant) VH: QLQLQESGPGLVKPSETLSLTCTVSGGSISSPNYYWGWIRQPPGKGLEWIGTIYYSGNTFYNPSLKSRVTISVDTSKNQFSLKLSSVTAADTAVYYCATQQLVLYYFDFWGQGTLVTVSS VL: EIVLTQSPGTLSLSPGKRAALSCRASQSISSSYLAWYQQKPGQAPRLLIYGASSRATGIPDRFNGSGSGTDFTLTISRLEPEDFAVYYCQQLGSSITFGQGTRLEIK ? 58
